Reference for the values: PubChem BioAssay AID179

Quick list: pIC50 per entry.
system: CEM cells HIV-1 protection, formazan growth assay; assay: NCI AIDS Antiviral Assay; conditions: measured here: growth of uninfected CEM cells
Convention used: pIC50 is expressed as -log10 of the molar concentration.

| compound | pIC50 |
| --- | --- |
| O=c1[nH]c2ccccc2nc1/C=C\NC(=S)Nc1cc(Cl)ccc1Cl | 3.95 |

For the compound shown here, CC(C)OP(=O)(OC(C)C)C([CH2][Sn]([CH3])([CH3])[Cl])P(=O)(c1ccccc1)c1ccccc1 (stereo not given) , give the reported pIC50.
5.54

For the compound shown here, `NC(=S)Nc1[nH]c(=S)nc2[nH]ccc12` , give the reported pIC50.
4.08

====

Quick list: IC50 per entry.
system: CEM cells HIV-1 protection, formazan growth assay; test: NCI AIDS Antiviral Assay; conditions: measured here: growth of uninfected CEM cells
Please state the figure in µM; there is no need to write the unit.

| molecule | IC50 / µM |
| --- | --- |
| NC(=O)N/N=C1/CC2CCCCC2c2ccccc21 (stereo unspecified) | 34.7 |
| S=C(NC/C(Br)=C/Br)Nc1cccc2ccccc12 | 36.3 |
| COc1ccccc1N1C(=O)CC(=O)N(C(=O)CCCCCCCCC(=O)N2C(=O)CC(=O)N(c3ccccc3OC)C2=S)C1=S | 95.5 |

For the molecule shown here, COc1ccc(C(c2cc3c(cc2O)OCO3)N2CCOCC2)c(OC)c1 (stereo unspecified) , give the reported IC50.
7.94

For the molecule shown here, `C=CCC(=S)NCCc1c[nH]c2ccccc12` , give the reported IC50.
120

For the molecule shown here, `CC(=O)CCn1ncc(Cl)c(Cl)c1=O` , give the reported IC50.
6.92

For the molecule shown here, `CCOP(=O)(OCC)/C(=C/NC(=S)c1ccncc1)C(=O)OC` , give the reported IC50.
186

For the molecule shown here, `COc1ccc2[nH]c3c(C)c4ccnc(NCCCN(C)CCCNc5ccc6ncn7c8ccccc8c(=O)c5c67)c4c(C)c3c2c1` , give the reported IC50.
0.00794

For the molecule shown here, `Cc1cc(-c2ccc(C(=O)C(Cl)(Cl)Cl)[nH]2)on1` , give the reported IC50.
17.8

====

system: CEM cells HIV-1 protection, formazan growth assay; experiment: NCI AIDS Antiviral Assay; conditions: measured here: growth of uninfected CEM cells
Class (required): determined from IC50; valid ranges are interval 1 = under 10 µM, interval 2 = from 10 µM up to 60 µM, interval 3 = 60 µM and over

Consider the following illustrative entries.
| compound | category_label |
| --- | --- |
| COc1ccc(-n2sc3ncc([N+](=O)[O-])cc3c2=O)cc1 | interval 3 |
| COc1cc(C2(C)OC(=O)c3ccccc32)c(OC)c2ccccc12 (stereo not drawn) | interval 1 |

Class (by measured IC50) for `O=C1CSC2=NCC3(NN12)c1ccccc1-c1ccccc13`
interval 3

Class (by measured IC50) for `NC(N)=NS(=O)(=O)c1ccc(Nc2c3ccccc3nc3c(C(=O)Nc4ccc(S(N)(=O)=O)cc4)cccc23)cc1`
interval 2

Class (by measured IC50) for Cc1cc(Cl)c(O)c(C(=O)C(=O)C(O)c2ccc3c(c2)OCO3)c1 (stereo not drawn)
interval 1

Class (by measured IC50) for CC(=O)Oc1cc(C(F)(F)F)ccc1C(=O)OC1(C)OC(=O)c2ccc(C(F)(F)F)cc2O1 (stereo not drawn)
interval 2

Class (by measured IC50) for `CC(=O)c1ccc2c(c1)N(CCCN(C)C)c1ccccc1S2`
interval 2

Class (by measured IC50) for `N#C/C(=C\c1ccc(-c2ccccc2)cc1)C(=O)c1ccccc1`
interval 2

Class (by measured IC50) for `N#CSCc1nc2ccc(Cl)cc2c(-c2ccccc2)[n+]1[O-]`
interval 1

Class (by measured IC50) for O=C(O)c1cc(CC2Cc3cc4c(cc3C2=O)CCC4)cc2c1CCC2 (stereo not drawn)
interval 2

Class (by measured IC50) for `COc1ccc(NC2=NCCO2)c2c1CCCC2`
interval 3

Class (by measured IC50) for `Cc1ccc(N=Nc2c(N)nn3cc4c(nc23)CCCCC4)cc1`
interval 3

Class (by measured IC50) for `CC(C)(NC1=NCCO1)c1ccccc1`
interval 3

Class (by measured IC50) for C1OC1[C@@H]1CC[C@@H]([C@@H]2CC[C@@H]([C@H]3CO3)O2)O1 (stereo partly drawn)
interval 2

Class (by measured IC50) for `COc1ccc(NC(=O)Nc2onc(C)c2C)c(Cl)c1`
interval 3

Class (by measured IC50) for `CC(=O)N/N=C(\N)c1nc2c(n3nc(C)nc13)CCCC2`
interval 3

Class (by measured IC50) for `CC[C@@]12N=C(N(C)C)C[C@]1(O)ON=C2C`
interval 3
